- target.desc: SARS-CoV 3CLpro (Severe acute respiratory syndrome coronavirus)
- procedure.details: biochemical
- Format: biochemical
- condition.details: read-out: 3CLpro IC50

# compound, IC50
measured = [
    ("CC(C)c1ccc(N(C(=O)c2ccco2)C(C(=O)NC(C)(C)C)c2cccnc2)cc1 (stereo not shown)", "< 50 µM"),
]
